Origin of measurements: patent US5455241A

Assay: Determination of the maximum tolerated dose (MTD)
Settings: mouse, in vivo, ip, 3 female Balb/c mice per dose, within 7 days; read-out: MTD (i.p.)

smiles-str	MTD at 168 h (mg/kg)
CO[C@@H]1[C@H](N(C)C(=O)[C@@H](C)OC2CCOCC2)C[C@H]2O[C@]1(C)n1c3ccccc3c3c4c(c5c6ccccc6n2c5c31)C(=O)NC4	31.2

----------
Assay: Determination of the maximum tolerated dose (MTD)
Settings: mouse, in vivo, po, 3 female Balb/c mice per dose, within 7 days; read-out: MTD (p.o.)
Experimental: Example 11: Determination of the maximum tolerated dose (MTD) of N-[0-(tetrahydro-pyran-4-yl) -D-lactoyl]- staurosporin 3 female Balb/c mice per dose are treated i.p. or p.o. with N-[O]-(tetrahydropyran-4-yl)-D-lactoyl]-staurosporin in dimethyl sulfoxide […]/sodium chloride solution (see Example 10 for formulation). The dose is increased until animals succumb within 7 days.
measured-parameter: MTD at 168 h (mg/kg)

smiles-str	measured-parameter	experimental-result
CO[C@@H]1[C@H](N(C)C(=O)[C@@H](C)OC2CCOCC2)C[C@H]2O[C@]1(C)n1c3ccccc3c3c4c(c5c6ccccc6n2c5c31)C(=O)NC4	MTD at 168 h	62.5
